Molecular target: Y30F/Y55F/Y115F/D38N KSI (Pseudomonas putida, UniProt P07445, D40N/Y119F/Y32F/Y57F)
Sequence (P07445 whole entry Y32F/D40N/Y57F/Y119F): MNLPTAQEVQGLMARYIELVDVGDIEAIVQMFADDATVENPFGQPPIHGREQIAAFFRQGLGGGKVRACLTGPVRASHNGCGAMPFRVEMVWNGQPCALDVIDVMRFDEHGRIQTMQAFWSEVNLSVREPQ
Assay: KD by quenching of intrinsic tryptophan fluorescence of KSI
Quantity Name: Kd (µM)
Your answer is read as µM, so omit the unit and give the number.

Data point: C[C@]12CCc3c(ccc4cc(O)ccc34)[C@@H]1CCC2=O [equilenin] ; Kd = 0.34

====

Molecular target: Y55F/D38N KSI (Pseudomonas putida, UniProt P07445, D40N/Y57F)
Assay: KD by quenching of intrinsic tryptophan fluorescence of KSI
Quantity Name: pKd
# pKd: negative log10 of molar concentration; output just the value

Given item C[C@]12CCc3c(ccc4cc(O)ccc34)[C@@H]1CCC2=O , the value recorded as its pKd is 7.10

Values from paper PMC4443282
